Kindly supply the reported growth values for the records listed here.
Tested on: SK-MEL-2 melanoma
method description: NCI-60 one-dose screen, 48 h (100 = growth as untreated, 0 = no growth, -100 = all killed)
run parameters: 10 µM unless noted
This is part of a sample that, as a whole, favours compounds with a hit. Of some 83,000 tested, about 20% had one in any assay.
Number in %, nothing else.

Consider CCCCCCCCCCCCCCCCCCNC(=O)[C@H]1CSC(c2ccc(OC)cc2O)N1 (stereo partly specified) . Its measured growth is 75.6

Consider O=[N+]([O-])c1cc(S(=O)(=O)Oc2ccccc2)ccc1Cl . Its measured growth is 87.5

Consider COc1ccc2c(c1)C(c1cc(OC)c3c(c1)OCO3)C1=C(COC1=O)N2 (stereo unspecified) . Its measured growth is 33.2

Consider FC(F)(F)c1ccccc1-c1cn2c(ccc3ccccc32)n1 . Its measured growth is 51.8

Consider CC(C)NCCCNC1=C(Cl)C(=O)c2ccccc2C1=O . Its measured growth is 125

Consider CCN(CC)CCC(CNc1c2ccc(Cl)cc2nc2ccc(OC)cc12)c1ccccc1 (stereo unspecified) . Its measured growth is -71.2

Consider COc1ccc2c(c1)cn1c3ccc(OC)cc3[nH]c(=O)c21 . Its measured growth is -50.3

Consider CCN(CC)c1ccc2[nH]c3c(C(N)=O)cc(=O)c(=O)c=3oc2c1 . Its measured growth is -19.4

Consider CN(C[C@H]1Cc2c(cccc2N2CCN(Cc3ccccn3)CC2)CN1)[C@H]1CCCc2cccnc21 . Its measured growth is 73.2

Consider CCOC(=O)CN1/C(=N/c2sc3c(c2C(=O)OCC)CCN(C(=O)OCC)C3)SC(=O)/C1=C\C(=O)OC . Its measured growth is 97.9

Consider Clc1cc(Cl)c2nc(-c3ccc(-c4ccc(/C=N/NC5=NCCN5)cc4)s3)cn2c1 . Its measured growth is 106

Consider CN(C)CC(C(=O)c1ccccc1)c1ccccc1 (stereo unspecified) . Its measured growth is 34.7

Consider Clc1ccc(-c2nc3ccccc3s2)cc1Cl . Its measured growth is 94.8

Consider N/C(=N\C(N)=N\c1nc2ccccc2s1)c1ccncc1 . Its measured growth is 41

Consider COc1cc(C2CC(c3ccc4c(c3)OCO4)=NN2C=O)cc(OC)c1OC (stereo unspecified) . Its measured growth is 31.3

Consider COc1ccc(-c2nc(-c3nc4cc(C)c(C)cc4[nH]3)cc3c2[nH]c2ccccc23)cc1 . Its measured growth is 86.9

Consider COc1cc(-c2nn(-c3cccc(NC(=O)Nc4cccc(C(F)(F)F)c4)c3)cc2-c2ccncc2)ccc1Cl . Its measured growth is -71.2

Consider COc1ccc(Nc2nn3c(-c4ccccc4)cc(-c4ccccc4)nc3c2C(N)=O)c(OC)c1 . Its measured growth is 70.1

Consider COc1ccc(C(=O)c2cc(OC)c3c(c2)OCO3)cc1O . Its measured growth is 71.7

Consider COc1ccc(-c2ccc(-c3ccc(C(=N)N)s3)s2)cc1Cl . Its measured growth is 96.2

Consider CCCCN(CCCC)c1ccc(C(=N)c2ccc(N(CCCC)CCCC)cc2)cc1 . Its measured growth is -79.1

###

System: HCT-116 colon
method description: NCI-60 one-dose screen, 48 h (100 = growth as untreated, 0 = no growth, -100 = all killed)
run parameters: 10 µM unless noted
Compounds without any hit were thinned out: in the full panel of roughly 83,000, 20% have a hit.
recorded metric: growth (%)
Number in %, nothing else.

Consider C/C=C(\C)C(C(=O)NC1CCCCC1)N(C(=O)C1CCc2cc(F)ccc2O1)c1ccc(Cl)cc1 (stereo not given) . Its measured growth is 103

Consider Nc1cccc(-c2nc3sccn3c2-c2ccnc(NCCNS(=O)(=O)c3ccc(C(F)(F)F)cc3)n2)c1 . Its measured growth is 55.1

Consider Cc1cc(N/N=C/c2nc(-c3ccccc3)oc2C)c2cc(Cl)ccc2n1 . Its measured growth is -94.2

Consider C1=Cc2ccccc2N(c2nnc(-c3ccccc3)o2)c2ccccc21 . Its measured growth is 66.6

Consider CCN(CC)CCCNc1nccc2ccc(Cl)cc12 . Its measured growth is 84.9

###

Tested on: T-47D breast
method description: NCI-60 one-dose screen, 48 h
run parameters: 10 µM unless noted
The panel holds about 83,000 compounds, 20% with a hit somewhere; the sample as a whole holds those more often. Activity calls are given as the source filed them. The calls were made as follows: active = growth percent below 10; inactive = the rest.
Mark one answer only. Choices: 1.0 for active, 0.0 for inactive

Answer briefly: the call reported for Cc1ccc(S(=O)(=O)C2=C3C(=C(c4ccccc4)c4ccccc43)CN(S(=O)(=O)c3ccc(C)cc3)C2)cc1 in this assay.
0.0

Answer briefly: the call reported for Brc1ccc(-c2[nH]ncc2-c2c[nH]c3ccccc23)cc1 in this assay.
0.0

Answer briefly: the call reported for Oc1ccc2cc(Br)ccc2c1-c1c(O)ccc2cc(Br)ccc12 in this assay.
0.0

Answer briefly: the call reported for CCCC(=O)Oc1ccc(/C(=C(\C)c2ccccc2)c2ccc(OCCN(CC)CC)cc2)cc1 in this assay.
0.0

Answer briefly: the call reported for CCN(CC)CCOC(=O)C(c1ccccc1)(c1ccccc1)C(C)C in this assay.
0.0

Answer briefly: the call reported for CCN(CC)CCC(CNc1ccnc2cc(Cl)ccc12)c1ccccc1 (stereo not given) in this assay.
0.0

Answer briefly: the call reported for c1cc(C2=N[C@@H]3c4ccccc4C[C@@H]3O2)nc(C2=N[C@@H]3c4ccccc4C[C@@H]3O2)c1 in this assay.
0.0

Answer briefly: the call reported for COc1ccc(CCNC2=CC(=O)CCC2)cc1OC in this assay.
0.0

Answer briefly: the call reported for Cn1c2ccc(Br)cc2c2c3c(c4c5ccccc5[nH]c4c21)C(=O)N(O)C3=O in this assay.
1.0

Answer briefly: the call reported for O=[N+]([O-])c1cc(Cl)c2[nH]c3c(Cl)cc([N+](=O)[O-])cc3c2c1 in this assay.
1.0

###

System: HS 578T breast
method description: NCI-60 one-dose screen, 48 h (100 = growth as untreated, 0 = no growth, -100 = all killed)
run parameters: 10 µM unless noted
The panel holds about 83,000 compounds, 20% with a hit somewhere; the sample as a whole holds those more often.
Label yes (1) when growth is strictly below 60%; at or above that, label no (0).

Record N/C(=N\S(=O)(=O)c1ccccc1)Nc1nc2ccccc2s1 : is its growth strictly below 60%?
no (0)

Record CC(=O)c1cc2c(N)c(C(=O)Nc3cccc4c3OCCO4)sc2nc1C : is its growth strictly below 60%?
no (0)

Record O=c1ccn(-c2ncnc3nc[nH]c23)cc1 : is its growth strictly below 60%?
no (0)

Record COc1cc2c(=O)n(C3CCCCCC3)c3c4cc[nH]c4ncc3c2cc1OC : is its growth strictly below 60%?
yes (1)

Record CC(C)OC(=O)N1CCOCC1 : is its growth strictly below 60%?
no (0)

Record CCN(CC)CCC(CNc1ccnc2cc(Cl)ccc12)c1ccccc1 (configuration not stated) : is its growth strictly below 60%?
yes (1)

Record Cc1nn(-c2ccc([N+](=O)[O-])cc2)c2ncnc(NCCc3ccccc3)c12 : is its growth strictly below 60%?
no (0)

Record COc1ccncc1S(=O)(=O)NC(=O)Nc1ccc(Cl)c(Cl)c1 : is its growth strictly below 60%?
no (0)

Record Cc1ccc(S(=O)(=O)NCCNc2nccc(-c3c(-c4ccc(O)cc4)nc4sccn34)n2)cc1 : is its growth strictly below 60%?
no (0)

Record COc1cc(-c2ncn(/C=C\C(=O)OC(C)C)n2)cc(C(F)(F)F)c1 : is its growth strictly below 60%?
yes (1)

Record Cc1cc(C2=NNC(=O)Cc3cc4c(cc32)OCCO4)cc(C)c1N : is its growth strictly below 60%?
yes (1)

Record COc1ccc(-c2nc(/C=C3/C(=O)Nc4ccc(F)cc43)c3ccccn23)cc1 : is its growth strictly below 60%?
no (0)

Record COC(OC)c1ccccc1 : is its growth strictly below 60%?
no (0)

Record Cc1ccc2nc(Cl)cc(=O)n2c1 : is its growth strictly below 60%?
no (0)

Record N#Cc1c(-c2ccccc2)nc(SCC(=O)N2CCN(c3ccccc3)CC2)[nH]c1=O : is its growth strictly below 60%?
no (0)

Record CC(C)c1ccc2occ(C=C3C(=O)NC(=O)NC3=O)c(=O)c2c1 : is its growth strictly below 60%?
no (0)

Record C=C(C)[C@@H]1C[C@@H]2Cc3cc(Cl)ccc3N1O2 : is its growth strictly below 60%?
no (0)

Record CCCCCCCCCCCCCCCCCCNC(=O)[C@H]1CSC(c2ccc(OC)cc2O)N1 (some centres not stated) : is its growth strictly below 60%?
yes (1)

Record COc1ccc(C2NN=C3c4ccccc4CCC32)cc1 (configuration not stated) : is its growth strictly below 60%?
no (0)

Record CCOC(=O)c1cn2c3c(cccc3c1=O)C(=O)/C(=C/c1cccc(Cl)c1Cl)C2 : is its growth strictly below 60%?
no (0)

Record CCCCCc1cc[n+](CC(=O)c2ccc([N+](=O)[O-])cc2)cc1 : is its growth strictly below 60%?
no (0)

Record CC1=NC2=CC=CC3=NC(C(Cl)(Cl)Cl)=NC(=N1)N23 : is its growth strictly below 60%?
no (0)

Record COc1cccc(CC(C)=C(c2ccc(OCCN3CCCCC3)cc2)c2ccc(OCCN3CCCCC3)cc2)c1 : is its growth strictly below 60%?
yes (1)

Record COc1cc(-c2nn(C(=O)NS(=O)(=O)c3ccccc3)cc2-c2ccncc2)ccc1Cl : is its growth strictly below 60%?
no (0)

Record O=C(Nc1ccncc1)C(=O)c1cn(S(=O)(=O)c2ccc(Cl)cc2)c2ccccc12 : is its growth strictly below 60%?
yes (1)

Record COc1ccc(NC(=O)c2c(Nc3ccc(OC)cc3OC)n[nH]c2N)c(OC)c1 : is its growth strictly below 60%?
no (0)

Record O=C(c1ccccc1)c1c(/C=C/c2ccccc2)c2ccccc2[nH]c1=O : is its growth strictly below 60%?
no (0)

Record COc1cc(C2C3=C(COC3=O)Nc3cc4c(cc32)CCC4)cc2c1OCO2 (configuration not stated) : is its growth strictly below 60%?
yes (1)

Record CN(CCCCN(C[C@H]1Cc2ncccc2CN1)[C@H]1CCCc2cccnc21)C1CCC(F)(F)CC1 : is its growth strictly below 60%?
no (0)

Record CCN(CC)c1ccc(N=O)cc1 : is its growth strictly below 60%?
no (0)

Record c1cc2[nH]ncc2cc1-c1nc2ccc3[nH]ncc3c2c2c1CCC2 : is its growth strictly below 60%?
yes (1)

Record O=c1[nH]c(NCc2ccccc2)nc2nc(Nc3ccc(NC(=S)Nc4ccccc4)cc3)nc(-c3ccc(O)cc3O)c12 : is its growth strictly below 60%?
no (0)

Record COc1ccc(-c2nc3sccn3c2/C=C/C(=O)c2cc(F)cc(F)c2)cc1 : is its growth strictly below 60%?
no (0)

Record COc1ccc(-c2ccc(-c3ccc(C(=N)N)cn3)s2)cc1OC : is its growth strictly below 60%?
no (0)

Record Oc1ccc(Cl)cc1-c1cc(-c2ccc(F)cc2)n[nH]1 : is its growth strictly below 60%?
no (0)

Record COC(=O)c1cc(=O)nc(N/N=C/c2ccco2)s1 : is its growth strictly below 60%?
no (0)

Record COc1ccc(Nc2ncccc2C(=O)NCc2cn(Cc3cccc(Oc4ccccc4)c3)nn2)cc1 : is its growth strictly below 60%?
yes (1)

Record COC(=O)c1cccc2c1N(C)c1c(cccc1C(=O)OC)CC2 : is its growth strictly below 60%?
no (0)

Record COc1ccc(-c2[nH]nc(N)c2-c2cc(OC)c3c(c2)OCO3)cc1 : is its growth strictly below 60%?
yes (1)

Record COc1ccc2c(c1)OC1=C(C(=O)OC1)C2c1cc(OC)c2c(c1)OCO2 (configuration not stated) : is its growth strictly below 60%?
yes (1)

Record O=C(NCc1cn(Cc2cccc(Oc3ccccc3)c2)nn1)c1cccnc1Nc1ccc(F)cc1 : is its growth strictly below 60%?
no (0)

Record CCCCCCCC[C@@H](O)CC(=O)N[C@@H](CC(N)=O)C(=O)N[C@@H](CCC(N)=O)C(=O)N[C@@H](CC(=O)c1cc(C)cc(O)c1C(=O)c1c(O)cccc1O)CC(C)C : is its growth strictly below 60%?
yes (1)
